Quick reference for pIC50 among some molecules
target: Monoacylglycerol lipase ABHD6 (Homo sapiens, UniProt Q9BV23); assay: Inhibition of human ABHD6 expressed in HEK293 cells at 1 uM pre-incubated for 10 mins before 2-AG substrate addition followed by rapid 40 fold compound dilution measured after 30 mins by HPLC method; format: cell-based
Sequence (Q9BV23 whole entry): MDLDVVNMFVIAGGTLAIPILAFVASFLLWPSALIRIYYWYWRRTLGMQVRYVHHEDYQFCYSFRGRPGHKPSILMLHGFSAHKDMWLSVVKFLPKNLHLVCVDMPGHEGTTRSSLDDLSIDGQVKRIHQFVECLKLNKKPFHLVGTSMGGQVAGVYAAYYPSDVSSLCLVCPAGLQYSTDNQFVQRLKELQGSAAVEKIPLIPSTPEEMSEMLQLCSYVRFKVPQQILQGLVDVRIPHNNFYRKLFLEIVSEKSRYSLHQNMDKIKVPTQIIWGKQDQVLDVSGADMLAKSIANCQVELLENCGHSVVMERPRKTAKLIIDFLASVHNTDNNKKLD
Friendly reminder that pIC50 comes from taking -log10 of the concentration in mol/L.

Prompt line: Read the entry `COc1nn(Cc2cccc(N)c2)c(=O)o1` and write its reported pIC50.
Response line: 5.42

***
Prompt line: Quote pIC50 reported for `CN(C(=O)Oc1nsnc1N1CCOCC1)C1CCCCCCC1` please.
Response line: 7.06

----------
List of IC50 values.
biological target: Monoacylglycerol lipase ABHD6 (Homo sapiens); experiment: Inhibition of human ABHD6 expressed in HEK293 cells at 1 uM pre-incubated for 10 mins before 2-AG substrate addition followed by rapid 40 fold compound dilution measured after 90 mins by HPLC method; type: cell-based
Entry rule: numbers only, all in nM.

Prompt line: Recall the reported IC50 of `COc1nn(Cc2cccc(N)c2)c(=O)o1` when tested on Monoacylglycerol lipase ABHD6 (Homo sapiens).
Response line: 3310

Now consider the entry below.
Prompt line: Report value: IC50, system: Monoacylglycerol lipase ABHD6 (Homo sapiens), molecule: `CN(C(=O)Oc1nsnc1N1CCOCC1)C1CCCCCCC1`
Response line: 93.3

----------
target: Monoacylglycerol lipase ABHD6 (Homo sapiens); experiment: Inhibition of human ABHD6 expressed in HEK293 cells at 1 uM pre-incubated for 10 mins before 2-AG substrate addition followed by rapid 40 fold compound dilution measured after 60 mins by HPLC method; format: cell-based
MEASUREMENT_NAME: IC50 (nM)
// units = nM; emit number, no label

Prompt line: Annotate the molecule `CN(C(=O)Oc1nsnc1N1CCOCC1)C1CCCCCCC1` with its measured IC50.
Response line: 87.1

Next:
Prompt line: Return IC50 (reported value) for this molecule: `COc1nn(Cc2cccc(N)c2)c(=O)o1`
Response line: 3630

----------
target: Monoglyceride lipase (Homo sapiens); test: Inhibition of human MAGL expressed in HEK293 cells at 10 uM pre-incubated for 10 mins before 2-AG substrate addition by HPLC method; format: cell-based
Activity calls are given as the source filed them. No cut-off for these calls is given here.
MEASUREMENT_NAME: inhibition

The following molecules have reported results that may help.
Prompt line: Answer with the recorded inhibition of `COc1nn(Cc2ccccc2-c2ccccc2)c(=O)o1` only.
Response line: 8%

Prompt line: For the molecule `COc1nn(Cc2ccc(NC(C)=O)cc2)c(=O)o1` , give its measured inhibition value.
Response line: 16%

Prompt line: Using the record for `COc1nn(Cc2ccc3ccccc3c2)c(=O)o1` , state its measured inhibition.
Response line: inactive

Prompt line: Answer with the recorded inhibition for the molecule listed here: `COc1nn(Cc2ccccc2NC(=O)c2ccccc2)c(=O)o1`
Response line: inactive

Prompt line: Return the recorded inhibition value; entry: `COc1nn(Cc2ccc(C#N)cc2)c(=O)o1`
Response line: 25%

Further cases:
Prompt line: State, in one line, measured inhibition of `COC(=O)c1cccc(Cn2nc(OC)oc2=O)c1`
Response line: 7%

Prompt line: Supply recorded inhibition for `CCOc1nn(Cc2cccc(N)c2)c(=O)o1` here.
Response line: 15%

Prompt line: Please report the measured inhibition for `COc1nn(Cc2cccc(Cl)c2)c(=O)o1`
Response line: 43%
